# Subject Of Test: T1, FcRn-p3 fusion protein (human, UniProt P55899 24-297; P61769 21-119)
# T1 construct: baculovirus expressed; coated on ELISA wells; not shown: amino terminal part of bacteriophage p3 protein and CVDE protein
# Assay Overview: phage ELISA pH6 (est.)
Recorded Ratio/FWT, one value per entry.
// return numeric value only (unit: fold, not printed)

Supply reported Ratio/FWT belonging to this binder: M3B_04 (other, EU numbering) CPPCPAPELLGGPSVLLFPPKPKDTLMISRTPEVTCVVEDVSHEDPEVKFNWYVDGVEVHNAKTKPREEQYNSTYRVVSVLTVLHQDWLNGKEYKCKVSNKALPAPIEKTISKAKGRPREPQVYTLPPSRDELTKNQVSLTCLVKGFYPSDIVVEWESNGQPENNYKTTPPVLDSDGSFFLYSKLTVDKSRWQQGNVFSCSVMHEALHNHYTQKSLSLSPGK
5.5

Supply reported Ratio/FWT belonging to this binder: T4A_32 (other, EU numbering) CPPCPAPELLGGPSVFLFPPKPKDTLMISRTPEVTCVVEDVSHEDPEVKFNWYVDGVEVHNAKTKPREEQYNSTYRVVSVLTVLHQDWLNGKEYKCKVSNKALPAPIEKTISKAKGQPREPQVYTLPPSRDELTKNQVSLTCLVKGFYPSDIVVEWESNGQPENNYKTTPPVLDSDGSFFLYSKLTVDKSRWQQGNVFSCSVMHEALRNHYTQKSLSLSPGK
7.4

meta.source: patent USRE46585
